System Under Test: B-Raf (V600E)-kinase (Homo sapiens (Human), UniProt P15056, V600E)
Sequence (P15056 whole entry V600E): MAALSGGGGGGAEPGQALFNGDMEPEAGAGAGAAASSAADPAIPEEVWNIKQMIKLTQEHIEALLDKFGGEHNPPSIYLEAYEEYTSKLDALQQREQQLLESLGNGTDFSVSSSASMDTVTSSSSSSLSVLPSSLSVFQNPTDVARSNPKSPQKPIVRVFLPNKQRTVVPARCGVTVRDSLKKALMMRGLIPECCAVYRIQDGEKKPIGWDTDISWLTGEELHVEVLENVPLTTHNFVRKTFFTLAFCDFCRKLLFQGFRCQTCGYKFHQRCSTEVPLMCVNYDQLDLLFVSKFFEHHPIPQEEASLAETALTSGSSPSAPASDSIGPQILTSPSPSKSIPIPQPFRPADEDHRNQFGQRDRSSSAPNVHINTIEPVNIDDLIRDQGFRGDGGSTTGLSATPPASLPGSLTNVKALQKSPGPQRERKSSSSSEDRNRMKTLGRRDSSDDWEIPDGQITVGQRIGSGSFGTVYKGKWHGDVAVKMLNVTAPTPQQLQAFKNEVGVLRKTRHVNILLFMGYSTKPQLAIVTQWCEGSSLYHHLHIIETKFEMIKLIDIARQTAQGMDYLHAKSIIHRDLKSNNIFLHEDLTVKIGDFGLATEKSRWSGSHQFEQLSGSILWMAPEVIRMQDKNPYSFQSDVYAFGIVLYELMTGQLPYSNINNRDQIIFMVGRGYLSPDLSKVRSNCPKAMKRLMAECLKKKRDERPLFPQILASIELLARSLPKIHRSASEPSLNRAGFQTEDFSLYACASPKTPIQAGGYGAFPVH
Measurement Protocol: Kinase test B-RAF (V600E)
Assay type: biochemical
Condition: B-RAF (V600E) kinase test, 250 μM ATP

{"columns": ["Smiles", "IC50, nM"],
 "data": [
  ["COc1ccc(NC(=O)c2ccc(Cl)c(Nc3ncnc4cnc(N5CCOCC5)nc34)c2)cc1C(F)(F)F", 2],
  ["COc1ccc(NC(=O)c2ccc(C)c(Nc3ncnc4cnc(N5C[C@@H](C)O[C@@H](C)C5)nc34)c2)cc1C(F)(F)F", 4],
  ["Cc1ccc(C(=O)Nc2cc(C(C)(C)C)n[nH]2)cc1Nc1ncnc2c(N)nc(N3CCCN(C)CC3)nc12", 3],
  ["COc1ccc(NC(=O)c2ccc(F)c(Nc3ncnc4cnc(N5CCOCC5)nc34)c2)cc1C(F)(F)F", 4]
]}

---

System Under Test: B-Raf (V600E)-kinase (Homo sapiens (Human), UniProt P15056, V600E)
Measurement Protocol: Kinase test B-RAF (V600E)
Format: biochemical
Condition: B-RAF (V600E) kinase test, 250 μM ATP
Reported IC50 values for a set of compounds

{"columns": ["Compound", "IC50"],
 "data": [
  ["Cc1ccc(C(=O)Nc2ccc3c(c2)C(C)(C)C(=O)N3CCN2CCCC2)cc1Nc1ncnc2cnc(N(C)CCN(C)C)nc12", "16 nM"],
  ["CN1CCCN(c2ncc3ncnc(Nc4cc(C(=O)Nc5cc(C(C)(C)C)on5)ccc4C(F)(F)F)c3n2)CC1", "88 nM"],
  ["CCN1CCN(c2ncc3ncnc(Nc4cc(NC(=O)c5cccc(C(C)(C)C#N)c5)ccc4C)c3n2)CC1", "1 nM"],
  ["CC(C)(C)c1cc(NC(=O)c2ccc(C(F)(F)F)c(Nc3ncnc4cnc(N5CCCC5)nc34)c2)no1", "> 1000 nM"],
  ["Cc1ccc(C(=O)Nc2cc(N3CCN(CC(C)C)CC3)cc(C(F)(F)F)c2)cc1Nc1ncnc2cnc(N3CC[C@H](F)C3)nc12", "8 nM"],
  ["Cc1ccc(C(=O)NCc2ccc(C(C)(C)C)cc2)cc1Nc1ncnc2cnc(N3CCN(C)CC3)nc12", "101 nM"],
  ["Cc1ccc(C(=O)Nc2cc(C(C)(C)C)n[nH]2)cc1Nc1ncnc2c(N)nc(N3CCN(CC4CCCO4)CC3)nc12 (stereo not shown)", "6 nM"]
]}

---

System Under Test: B-Raf (V600E)-kinase (Homo sapiens (Human), UniProt P15056, V600E)
Measurement Protocol: Kinase test B-RAF (V600E)
Assay type: biochemical
Condition: B-RAF (V600E) kinase test, 250 μM ATP
pIC50: −log10 of the molar value.
Reported pIC50 values for a set of molecules

{"columns": ["Molecule", "Prefix Operator", "pIC50"],
 "data": [
  ["Cc1ccc(C(=O)NCC2CCOC2)cc1Nc1ncnc2cnc(N3CCCCC3)nc12 (stereo not drawn) [III-212]", "<", 4.82],
  ["COc1c(NC(=O)c2ccc(C)c(Nc3ncnc4cnc(N5CCOCC5)nc34)c2)cc(C(C)(C)C)cc1NS(C)(=O)=O [III-323]", "=", 7.96],
  ["COCCN1CCN(c2ncc3ncnc(Nc4cc(C(=O)Nc5cc(C(C)(C)C)n[nH]5)ccc4C)c3n2)CC1 [III-425]", "=", 8.15],
  ["CCN(CC)c1ncc2ncnc(Nc3cc(C(=O)Nc4cc(CN5CCCC5)cc(C(F)(F)F)c4)ccc3C)c2n1 [III-117]", "=", 8.70],
  ["COc1ncc2ncnc(Nc3cc(C(=O)Nc4cccc(C(C)(C)C)c4)ccc3C)c2n1 [III-570]", ">", 9.00],
  ["Cc1ccc(C(=O)Nc2cc(N3CCN(C(C)C)CC3)cc(C(F)(F)F)c2)cc1Nc1ncnc2cnc(N3CCOCC3)nc12 [III-461]", "=", 8.70],
  ["Cc1ccc(C(=O)Nc2cccc(C(F)(F)F)c2)cc1Nc1ncnc2c(N)nc(N3CCNCC3)nc12 [I-66]", ">", 9.00],
  ["Cc1ccc(NC(=O)c2cccc(C(C)(C)C#N)c2)cc1Nc1ncnc2cnc(NC3CCOCC3)nc12 [IV-38]", "=", 8.70],
  ["Cc1ccc(C(=O)Nc2cc(C(C)(C)C)on2)cc1Nc1ncnc2cnc(N3CCN(CC4CCCN(C)C4)CC3)nc12 (stereo not drawn) [III-483]", "=", 9.00],
  ["Cc1ccc(C(=O)Nc2cccc(C(C)(C)C)c2)cc1Nc1ncnc2cnc(N3CCOCC3)nc12 [III-294]", "=", 9.00],
  ["Cc1ccc(C(=O)Nc2cc(C(C)(C)C)n[nH]2)cc1Nc1ncnc2cnc(N3CC[C@H](F)C3)nc12 [III-508]", "=", 8.52],
  ["Cc1ccc(NC(=O)c2cccc(C(C)(C)C#N)c2)cc1Nc1ncnc2cnc(N(C)C)nc12 [IV-12]", "=", 9.00],
  ["CC(C)(C#N)c1cccc(NC(=O)c2ccc(F)c(Nc3ncnc4cnc(NC5CCOC5)nc34)c2)c1 (stereo not drawn) [III-386]", "=", 9.00],
  ["COCCN1CCN(c2ncc3ncnc(Nc4cc(C(=O)Nc5cc(C(F)(F)F)ccc5C#N)ccc4C)c3n2)CC1 [III-531]", "=", 7.89],
  ["COc1ccc(NC(=O)c2ccc(C)c(Nc3ncnc4cnc(N5CCC(N6CCOCC6)CC5)nc34)c2)cc1C(F)(F)F [III-558]", "=", 7.64],
  ["CN1CCN(c2nc(N)c3ncnc(Nc4cc(C(=O)Nc5cccc(C(F)(F)F)c5)ccc4Br)c3n2)CC1 [I-26]", "=", 7.15],
  ["COc1ccc(NC(=O)c2ccc(C)c(Nc3ncnc4cnc(N5C[C@H]6C[C@@H]5CN6C)nc34)c2)cc1C(F)(F)F [III-431]", "=", 8.52],
  ["COc1ccc(C(=O)Nc2ccc(OC)c(C(F)(F)F)c2)cc1Nc1ncnc2cnc(N3CCCCC3)nc12 [III-23]", "=", 8.15],
  ["COc1ccc(NC(=O)c2ccc(C)c(Nc3ncnc4cnc(N5CCN(CC6CCCN(C)C6)CC5)nc34)c2)cc1C(F)(F)F (stereo not drawn) [III-554]", "=", 8.52],
  ["CCN1CCN(c2cc(NC(=O)c3ccc(C)c(Nc4ncnc5cnc(N(C)CCOC)nc45)c3)cc(C(F)(F)F)c2)CC1 [III-470]", "=", 8.70],
  ["CN1CCN(c2cc(NC(=O)c3ccc(F)c(Nc4ncnc5cnc(NC6CCOC6)nc45)c3)cc(C(F)(F)F)c2)CC1 (stereo not drawn) [III-388]", ">", 9.00],
  ["COc1ncc2ncnc(Nc3cc(C(=O)Nc4cccc(C(F)(F)F)c4)ccc3C)c2n1 [III-568]", "=", 9.00],
  ["Cc1ccc(C(=O)Nc2cc(OCCN3CCCC3)cc(C(F)(F)F)c2)cc1Nc1ncnc2cnc(N3CCOCC3)nc12 [III-523]", "=", 9.00],
  ["COc1ccc(NC(=O)c2ccc(Cl)c(Nc3ncnc4cnc(N(C)CCN(C)C)nc34)c2)cc1C(F)(F)F [III-5]", "=", 8.70],
  ["Cc1ccc(NC(=O)c2cccc(C(F)(F)F)c2)cc1Nc1ncnc2c(N)nc(NN3CCN(C)CC3)nc12 [II-3]", "=", 7.30],
  ["Cc1ccc(C(=O)Nc2cccc(C(C)(C)C)c2)cc1Nc1ncnc2cnc(N3CCN(CC4CCN(C)CC4)CC3)nc12 [III-416]", "=", 9.00],
  ["COCCN(C)c1ncc2ncnc(Nc3cc(C(=O)Nc4cc(C(C)(C)C)n[nH]4)ccc3C)c2n1 [III-471]", "=", 8.40],
  ["CC(C)(C)c1cc(NC(=O)c2ccc(F)c(Nc3ncnc4cnc(NC5CCOC5)nc34)c2)[nH]n1 (stereo not drawn) [III-392]", "=", 8.52],
  ["Cc1ccc(C(=O)Nc2cc(CN3CCCC3)cc(C(F)(F)F)c2)cc1Nc1ncnc2cnc(NCC(C)C)nc12 [III-112]", "=", 8.70],
  ["CCN1CCN(c2cc(NC(=O)c3ccc(C)c(Nc4ncnc5cnc(NC6CCOC6)nc45)c3)cc(C(F)(F)F)c2)CC1 (stereo not drawn) [III-351]", ">", 9.00]
]}

---

Reported IC50 values for a set of compounds
System Under Test: B-Raf (V600E)-kinase (Homo sapiens (Human), UniProt P15056, V600E)
Measurement Protocol: Kinase test B-RAF (V600E)
Assay type: biochemical
Condition: B-RAF (V600E) kinase test, 250 μM ATP
Readout Name: IC50 (nM)

{"columns": ["Compound", "System Under Test", "Readout Name", "Prefix Operator", "Result Number"],
 "data": [
  ["COc1ccc(NC(=O)c2ccc(C)c(Nc3ncnc4cnc(N5CCCOCC5)nc34)c2)cc1C(F)(F)F", "B-Raf (V600E)-kinase (Homo sapiens (Human), UniProt P15056, V600E)", "IC50", "=", 1],
  ["Cc1ccc(C(=O)NCC2CCOC2)cc1Nc1ncnc2cnc(N3CCCN(C)CC3)nc12 (centres unmarked)", "B-Raf (V600E)-kinase (Homo sapiens (Human), UniProt P15056, V600E)", "IC50", ">", 7000],
  ["Cc1ccc(C(=O)Nc2ccc(Cl)c(C(F)(F)F)c2)cc1Nc1ncnc2cnc(N3CCOCC3)nc12", "B-Raf (V600E)-kinase (Homo sapiens (Human), UniProt P15056, V600E)", "IC50", "=", 2],
  ["COCCN(C)c1ncc2ncnc(Nc3cc(C(=O)Nc4cccc(C(C)(C)C)c4)ccc3C)c2n1", "B-Raf (V600E)-kinase (Homo sapiens (Human), UniProt P15056, V600E)", "IC50", "<", 1],
  ["Cc1ccc(C(=O)Nc2cccc(S(=O)(=O)N(C)C)c2)cc1Nc1ncnc2cnc(N3CCCC3)nc12", "B-Raf (V600E)-kinase (Homo sapiens (Human), UniProt P15056, V600E)", "IC50", "=", 3],
  ["Cc1ccc(NC(=O)c2cc(C(C)(C)C)n[nH]2)cc1Nc1ncnc2cnc(N3CCN(C)CC3)nc12", "B-Raf (V600E)-kinase (Homo sapiens (Human), UniProt P15056, V600E)", "IC50", "=", 44],
  ["Cc1ccc(NC(=O)c2cccc(C(C)(C)C#N)c2)cc1Nc1ncnc2cnc(NC3CCN(C)CC3)nc12", "B-Raf (V600E)-kinase (Homo sapiens (Human), UniProt P15056, V600E)", "IC50", "=", 1],
  ["COc1ccc(NC(=O)c2ccc(C)c(Nc3ncnc4cnc(N5CCCN(C)CC5)nc34)c2)cc1C(F)(F)F", "B-Raf (V600E)-kinase (Homo sapiens (Human), UniProt P15056, V600E)", "IC50", "=", 1]
]}

Data provenance: patent US8653087B2
